Source of measurements: patent EP2857388A1

biological target: human B1R (Homo sapiens, UniProt P46663); construct: expressed in transfected cells; host or cells: CHO K1 cells (Chinese Hamster Ovary), stably transfected; assay: Functional assay at bradykinin receptor 1 (B1R): Ca2+ fluorescence (Fluo-4) in FLIPR/Novostar, antagonist mode; assay type: cell-based; details: test substance 10 µM; CHO K1 cells stably transfected with human B1R gene (hB1R-Zellen); agonist Lys-Des-Arg9-Bradykinin at EC80; % inhibition relative to maximal achievable inhibition; read-out: % Inhibierung (human B1R) bei 10 µM

compound: COc1cc(C)c(S(=O)(=O)Cc2noc(CC(=O)N(C)C3CCC(N4CCN(C)CC4)CC3)n2)c(C)c1 (stereo not shown) [SC-58]
units_symbol: %
inhibition at 10 µM: 100
--
compound: COc1cc(C)c(S(=O)(=O)Cc2nc(CC(=O)NC3CCC(N4CCN(C)CC4)CC3(C)C)no2)c(C)c1 (stereo not shown) [CC-33]
units_symbol: %
inhibition at 10 µM: 100
--
compound: Cc1cc(S(=O)(=O)Cc2noc(C(=O)N3CCC4(CC3)CCN(c3ccncc3)C4)n2)c(C)cc1Cl [CC-152]
units_symbol: %
inhibition at 10 µM: 100
--
compound: Cc1cccc(Cl)c1S(=O)(=O)Cc1noc(C(=O)N2CCC3(CC2)CCN(c2ccncc2)CC3)n1 [CC-148]
units_symbol: %
inhibition at 10 µM: 100

* * *

target: human B1R (Homo sapiens, UniProt P46663); construct: expressed in transfected cells; host or cells: CHO K1 cells (Chinese Hamster Ovary), stably transfected; assay: Functional assay at bradykinin receptor 1 (B1R): Ca2+ fluorescence (Fluo-4) in FLIPR/Novostar, antagonist mode; format: cell-based; settings: test substance 10 µM; CHO K1 cells stably transfected with human B1R gene (hB1R-Zellen); agonist Lys-Des-Arg9-Bradykinin at EC80; % inhibition relative to maximal achievable inhibition; read-out: % Inhibierung (human B1R) bei 10 µM

compound: COc1cc(C)c(S(=O)(=O)Cc2noc(CC(=O)N3CCN(Cc4ccnc(N5CCCC5)c4)CC3)n2)c(C)c1 [SC-52]
units_symbol: %
inhibition at 10 µM: 100

compound: COc1cc(C)c(S(=O)(=O)Cc2noc(C(=O)NC3CCN(c4ccncc4)CC3(C)C)n2)c(C)c1 (stereo not drawn) [SC-12]
units_symbol: %
inhibition at 10 µM: 100

compound: COc1cc(C)c(S(=O)(=O)Cc2noc(CC(=O)NC3CCC(N4CCCC4)CC3(C)C)n2)c(C)c1 (stereo not drawn) [CC-23]
units_symbol: %
inhibition at 10 µM: 100

compound: Cc1cccc(Cl)c1S(=O)(=O)Cc1noc(C(=O)N2CCC3(CC2)CCN(c2ccncc2)C3)n1 [CC-145]
units_symbol: %
inhibition at 10 µM: 100

compound: COc1cc(C)c(S(=O)(=O)Cc2cc(C)n(CC(=O)NC3CCC(NC4CC4)CC3(C)C)n2)c(C)c1 (stereo not drawn) [CC-177]
units_symbol: %
inhibition at 10 µM: 99

compound: COc1cc(C)c(S(=O)(=O)Cc2noc(CC(=O)NC3CCC(N4CCN(C)CC4)CC3(C)C)n2)c(C)c1 (stereo not drawn) [SC-13]
units_symbol: %
inhibition at 10 µM: 100

compound: COc1cc(C)c(S(=O)(=O)Cc2noc(CC(=O)N3CCC4(CCN(C)C4)C3)n2)c(C)c1 (stereo not drawn) [CC-130]
units_symbol: %
inhibition at 10 µM: 99

compound: COc1cc(C)c(S(=O)(=O)Cc2nnc(C(=O)NC3CCNCC3(C)C)o2)c(C)c1 (stereo not drawn) [SC-87]
units_symbol: %
inhibition at 10 µM: 98

compound: COc1cc(C)c(S(=O)(=O)Cc2cn(CC(=O)N(C)C3CCNCC3(C)C)nn2)c(C)c1 (stereo not drawn) [CC-181]
units_symbol: %
inhibition at 10 µM: 99

compound: Cc1cc(S(=O)(=O)Cc2noc(CC(=O)NC3CCC(N4CCCC4)CC3(C)C)n2)c(C)cc1Cl (stereo not drawn) [CC-43]
units_symbol: %
inhibition at 10 µM: 99

compound: COc1cc(C)c(S(=O)(=O)Cc2noc(C(=O)N3CCC(CN4CCN(C)CC4)C3)n2)c(C)c1 (stereo not drawn) [SC-07]
units_symbol: %
inhibition at 10 µM: 100

compound: COc1cc(C)c(S(=O)(=O)Cc2nnc(CC(=O)N(C3CCC(N(C)C)CC3)C3CC3)o2)c(C)c1 (stereo not drawn) [CC-124]
units_symbol: %
inhibition at 10 µM: 100

compound: COc1cc(C)c(S(=O)(=O)Cc2nc(C(=O)N3CCC(CN4CCN(C)CC4)C3)no2)c(C)c1 (stereo not drawn) [SC-88]
units_symbol: %
inhibition at 10 µM: 100

compound: COc1cc(C)c(S(=O)(=O)Cc2noc(CC(=O)N(C)C3CCN(c4ncnc5ccccc45)CC3)n2)c(C)c1 [SC-63]
units_symbol: %
inhibition at 10 µM: 100

compound: COc1cc(C)c(S(=O)(=O)Cc2noc(CC(=O)N(C)C3CCN(C4CCC(C)CC4)CC3)n2)c(C)c1 (stereo not drawn) [SC-20]
units_symbol: %
inhibition at 10 µM: 100

* * *

Biological target: human B1R (Homo sapiens)
Construct: expressed in transfected cells; host or cells: CHO K1 cells (Chinese Hamster Ovary), stably transfected
Sequence (P46663 1-353): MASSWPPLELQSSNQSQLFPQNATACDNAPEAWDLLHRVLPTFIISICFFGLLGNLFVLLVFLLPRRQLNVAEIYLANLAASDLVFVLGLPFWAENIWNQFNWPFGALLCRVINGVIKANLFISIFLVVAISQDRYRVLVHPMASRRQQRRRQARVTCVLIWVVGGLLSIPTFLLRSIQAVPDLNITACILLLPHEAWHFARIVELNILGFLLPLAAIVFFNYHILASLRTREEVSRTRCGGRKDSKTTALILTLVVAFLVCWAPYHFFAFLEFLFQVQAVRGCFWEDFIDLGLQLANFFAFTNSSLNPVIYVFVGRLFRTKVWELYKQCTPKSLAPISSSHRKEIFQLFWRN
Assay: Functional assay at bradykinin receptor 1 (B1R): Ca2+ fluorescence (Fluo-4) in FLIPR/Novostar, antagonist mode
Type: cell-based
Details: test substance 10 µM; CHO K1 cells stably transfected with human B1R gene (hB1R-Zellen); agonist Lys-Des-Arg9-Bradykinin at EC80; % inhibition relative to maximal achievable inhibition; read-out: % Inhibierung (human B1R) bei 10 µM

compound: COc1cc(C)c(S(=O)(=O)Cc2noc(C(=O)N3CC4(CCN(c5ccncc5)CC4)C3)n2)c(C)c1
inhibition at 10 µM (%): 100

compound: COc1cc(C)c(S(=O)(=O)Cc2noc(C(=O)NC3CCC(N4CCN(C)CC4)CC3(C)C)n2)c(C)c1 (stereo not shown)
inhibition at 10 µM (%): 99

compound: COc1cc(C)c(S(=O)(=O)Cc2noc(C(=O)N(C)[C@H]3CCC[C@@H](N4CCN(C)CC4)C3)n2)c(C)c1
inhibition at 10 µM (%): 100

compound: COc1cc(C)c(S(=O)(=O)Cc2cn(CC(=O)NC3CCNCC3)nn2)c(C)c1
inhibition at 10 µM (%): 99

* * *

Each entry below carries its reported inhibition at 10 µM.
molecular target: human B1R (Homo sapiens); construct: expressed in transfected cells; host or cells: CHO K1 cells (Chinese Hamster Ovary), stably transfected; assay: Functional assay at bradykinin receptor 1 (B1R): Ca2+ fluorescence (Fluo-4) in FLIPR/Novostar, antagonist mode; assay type: cell-based; conditions: test substance 10 µM; CHO K1 cells stably transfected with human B1R gene (hB1R-Zellen); agonist Lys-Des-Arg9-Bradykinin at EC80; % inhibition relative to maximal achievable inhibition; read-out: % Inhibierung (human B1R) bei 10 µM

compound: Cc1cc(S(=O)(=O)Cc2noc(C(=O)NC3CCC(N(C)C)CC3)n2)c(C)cc1Cl (stereo not shown)
measured_on: human B1R (Homo sapiens)
inhibition at 10 µM / %: 99

compound: COc1cc(C)c(S(=O)(=O)Cc2noc(C(=O)N3CCC4(CCN(C)C4)C3)n2)c(C)c1 (stereo not shown)
measured_on: human B1R (Homo sapiens)
inhibition at 10 µM / %: 100

compound: COc1cc(C)c(S(=O)(=O)Cc2noc(CC(=O)N(C)C3CCN(C(=O)CCN4CCCCC4)CC3)n2)c(C)c1
measured_on: human B1R (Homo sapiens)
inhibition at 10 µM / %: 100

compound: COc1cc(C)c(S(=O)(=O)Cc2noc(C(=O)N3CCN(Cc4ccc(N5CCCC5)nc4)CC3)n2)c(C)c1
measured_on: human B1R (Homo sapiens)
inhibition at 10 µM / %: 100

* * *

Each entry below carries its reported inhibition at 10 µM.
Target: human B1R (Homo sapiens, UniProt P46663)
Construct: expressed in transfected cells; host or cells: CHO K1 cells (Chinese Hamster Ovary), stably transfected
Sequence (P46663 1-353): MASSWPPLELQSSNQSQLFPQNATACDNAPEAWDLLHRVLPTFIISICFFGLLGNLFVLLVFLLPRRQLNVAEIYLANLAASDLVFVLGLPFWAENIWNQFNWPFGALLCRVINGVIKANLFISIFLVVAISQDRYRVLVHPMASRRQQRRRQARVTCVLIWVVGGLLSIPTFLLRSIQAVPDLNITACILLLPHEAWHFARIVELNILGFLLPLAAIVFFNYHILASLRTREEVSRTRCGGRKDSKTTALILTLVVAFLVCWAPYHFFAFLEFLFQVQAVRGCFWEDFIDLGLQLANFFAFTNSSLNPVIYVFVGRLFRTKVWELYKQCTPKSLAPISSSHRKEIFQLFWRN
Assay: Functional assay at bradykinin receptor 1 (B1R): Ca2+ fluorescence (Fluo-4) in FLIPR/Novostar, antagonist mode
Assay type: cell-based
Details: test substance 10 µM; CHO K1 cells stably transfected with human B1R gene (hB1R-Zellen); agonist Lys-Des-Arg9-Bradykinin at EC80; % inhibition relative to maximal achievable inhibition; read-out: % Inhibierung (human B1R) bei 10 µM
measured_attribute: inhibition at 10 µM (%)

compound: COc1cc(C)c(S(=O)(=O)Cc2noc(C(=O)NC3CCN(c4ccc(C(F)(F)F)cn4)C3)n2)c(C)c1 (stereo not shown)
assay_result: 94

compound: CN(C)C1CCC(NC(=O)Cc2nc(CS(=O)(=O)c3ccc(Cl)c(Cl)c3)no2)CC1 (stereo not shown)
assay_result: 54

compound: Cc1cccc(Cl)c1S(=O)(=O)Cc1noc(CC(=O)NC2CCC(N3CCN(C)CC3)CC2(C)C)n1 (stereo not shown)
assay_result: 100

compound: COc1cc(C)c(S(=O)(=O)Cc2cn(CC(=O)NC3CCC(c4ccncc4)CC3(C)C)nn2)c(C)c1 (stereo not shown)
assay_result: 100

compound: Cc1cccc(Cl)c1S(=O)(=O)Cc1noc(CC(=O)N(C2CCC(N(C)C)CC2)C2CC2)n1 (stereo not shown)
assay_result: 88

compound: COc1cc(C)c(S(=O)(=O)Cc2noc(CC(=O)NC3CCC(O)CC3(C)C)n2)c(C)c1 (stereo not shown)
assay_result: 100

compound: COc1cc(C)c(S(=O)(=O)Cc2c(C)nn(CC(=O)NC3CCN(C)CC3(C)C)c2C)c(C)c1 (stereo not shown)
assay_result: 100

compound: COc1cc(C)c(S(=O)(=O)Cc2cn(CC(=O)NC3CCC(N4CCCC4)CC3)nn2)c(C)c1 (stereo not shown)
assay_result: 100

compound: COc1cc(C)c(S(=O)(=O)Cc2noc(CC(=O)N(C)C3CCN(c4ccncc4F)CC3)n2)c(C)c1
assay_result: 100

compound: COc1cc(C)c(S(=O)(=O)Cc2nc(CC(=O)N(C3CCC(N(C)C)CC3)C3CC3)no2)c(C)c1 (stereo not shown)
assay_result: 100

compound: COc1cc(C)c(S(=O)(=O)Cc2noc(CC(=O)N(C)[C@H]3CCC[C@@H](N4CCN(C)CC4)C3)n2)c(C)c1
assay_result: 100

compound: COc1cc(C)c(S(=O)(=O)Cc2noc(C(=O)NC3CCNCC3(C)C)n2)c(C)c1 (stereo not shown)
assay_result: 100

compound: COc1cc(C)c(S(=O)(=O)Cc2noc(C(=O)N(C)CCC3CCN(c4ccncc4)CC3)n2)c(C)c1
assay_result: 100

compound: COc1cc(C)c(S(=O)(=O)Cc2noc(CC(=O)N3CCC4(CC3)CCN(c3ccncc3)CC4)n2)c(C)c1
assay_result: 99

compound: COc1cc(C)c(S(=O)(=O)Cc2noc(C(=O)NC3CCC(N(C)C)CC3)n2)c(C)c1 (stereo not shown)
assay_result: 100

compound: COc1cc(C)c(S(=O)(=O)Cc2c(C)nn(CC(=O)N(C)C3CCNCC3(C)C)c2C)c(C)c1 (stereo not shown)
assay_result: 72

compound: COCCN1CCC(NC(=O)Cn2nc(C)c(CS(=O)(=O)c3c(C)cc(OC)cc3C)c2C)C(C)(C)C1 (stereo not shown)
assay_result: 100

compound: Cc1cccc(Cl)c1S(=O)(=O)Cc1noc(C(=O)N(C)CCC2CCN(c3ccncc3)CC2)n1
assay_result: 100

compound: COc1cc(C)c(S(=O)(=O)Cc2nc(CC(=O)NC3CCC(NC4CC4)CC3(C)C)no2)c(C)c1 (stereo not shown)
assay_result: 100

compound: COc1cc(C)c(S(=O)(=O)Cc2noc(CC(=O)N(C)C3CCN(Cc4cc(C)no4)CC3)n2)c(C)c1
assay_result: 100

compound: COc1cc(C)c(S(=O)(=O)Cc2noc(C(=O)NC3CCC(Cc4ccncc4)CC3)n2)c(C)c1 (stereo not shown)
assay_result: 99

compound: COc1cc(C)c(S(=O)(=O)Cc2noc(CC(=O)N3CCC4(CC3)CCN(c3ccncc3)C4)n2)c(C)c1
assay_result: 100

compound: COc1cc(C)c(S(=O)(=O)Cc2noc(C(=O)N3CCN(Cc4ccnc(N5CCCC5)c4)CC3)n2)c(C)c1
assay_result: 99

compound: COc1cc(C)c(S(=O)(=O)Cc2noc(C(=O)NCC3CCC(c4ccncc4)CC3)n2)c(C)c1 (stereo not shown)
assay_result: 98

compound: CN(C)C1CCC(N(C(=O)Cc2nc(CS(=O)(=O)c3cccc(Cl)c3Cl)no2)C2CC2)CC1 (stereo not shown)
assay_result: 67

compound: COc1cc(C)c(S(=O)(=O)Cc2cc(C)n(CC(=O)NC3CCC(N4CCCC4)CC3(C)C)n2)c(C)c1 (stereo not shown)
assay_result: 98

compound: COc1cc(C)c(S(=O)(=O)Cc2noc(C(=O)NC3CCC(c4ccncc4)CC3(C)C)n2)c(C)c1 (stereo not shown)
assay_result: 97

compound: Cc1cccc(Cl)c1S(=O)(=O)Cc1noc(CC(=O)N(C)[C@H]2CCC[C@@H](N3CCN(C)CC3)C2)n1
assay_result: 89

compound: Cc1cccc(Cl)c1S(=O)(=O)Cc1noc(C(=O)NC2CCC(N(C)C)CC2)n1 (stereo not shown)
assay_result: 95

compound: COc1cc(C)c(S(=O)(=O)Cc2c(C)nn(CC(=O)N(C3CCC(N(C)C)CC3)C3CC3)c2C)c(C)c1 (stereo not shown)
assay_result: 93

compound: COc1cc(C)c(S(=O)(=O)Cc2noc(C(=O)N3CCN(c4ccncc4)CC3)n2)c(C)c1
assay_result: 100
